- TARGET: cellular prion protein (PrP^C) (Mus musculus, UniProt P04925)
- Construct: gene Prnp
- Sequence (P04925 23-230 limits assumed): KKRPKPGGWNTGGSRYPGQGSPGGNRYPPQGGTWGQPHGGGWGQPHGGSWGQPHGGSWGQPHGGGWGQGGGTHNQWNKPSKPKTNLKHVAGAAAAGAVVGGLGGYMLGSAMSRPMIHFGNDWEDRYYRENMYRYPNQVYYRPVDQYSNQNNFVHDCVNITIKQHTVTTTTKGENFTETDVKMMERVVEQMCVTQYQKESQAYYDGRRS
- ASSAY_PROTOCOL: biochemical
- Format: binding
QUANTITY: Kd

Requested read-out: Kd. Entry: CN(C)CCCN1c2ccccc2Sc2ccc(Cl)cc21
> 100 µM
